Entries annotated with measured MRSA IC50
system: MRSA; experiment: Antibacterial susceptibility testing, MRSA; type: cell-based, methicillin resistant Staphylococcus aureus; details: Table 3

Compound: C[n+]1cc2c(c3ccc(C(F)(F)F)cc3n2CCCCCC2CCCCC2)c2ccccc21.[I-] [JRE-5-31-1]
MRSA IC50 [µg/mL]: 0.70
//
Compound: FC(F)(F)c1ccc2[nH]c3c[n+](CCCCCC4CCCCC4)c4ccccc4c3c2c1.[I-] [JRE-3-4-1]
MRSA IC50 [µg/mL]: 1.0
//
Compound: C[n+]1cc2c(c3ccc(Cl)cc3n2CCCCCC2CCCCC2)c2ccccc21.[I-] [JRE-3-84-1]
MRSA IC50 [µg/mL]: 0.80
//
Compound: Clc1ccc2c(c1)[nH]c1c[n+](CCCCCC3CCCCC3)c3ccccc3c12.[I-] [JRE-3-10-1]
MRSA IC50 [µg/mL]: 5.0
//
Compound: C[n+]1cc2c(c3ccccc3n2CCCCCC2CCCCC2)c2ccccc21.[I-] [JRE-3-100-1]
MRSA IC50 [µg/mL]: 0.70
